All values here come from patent US10618964B2.

Biological target: native soluble IL-6R in human plasma (human, UniProt P08887)
Assay: ELISA 1, periplasmic extract; competitor IL-6; human plasma
Think of 1 as a floor: if OD450 ratio sample/blank stands on it or above, it is Met; beneath it, Not met.

Solved entries:
binder	assigned class
IL6RPMP101G2 (VHH) VHH: EVQLVESGGGLVQAGGSLRLSCAASGSIFRINAMGWYRQAPGKQRELVAAAISGGSTNYADFVKGRFTISRDNAKNTVYLQMNSLKPEDTAVYYCNALVVSHNYSDYVPFPDDYWGQGTQVTVSS	Not met
IL6RPMP108D10 (VHH) VHH: EVQLVESGGGSVQAGGSLRLSCTASGRTFSDYDMGWFRQAPGKERECVAVIDTNGDNTLTVGSVKGRFAISRDNAKNTVYLQMNSLLPEDTAVYTCAAGAWSSLRSTAANYWGQGTQVTVSS	Not met
IL6RPMP120A1 (VHH) VHH: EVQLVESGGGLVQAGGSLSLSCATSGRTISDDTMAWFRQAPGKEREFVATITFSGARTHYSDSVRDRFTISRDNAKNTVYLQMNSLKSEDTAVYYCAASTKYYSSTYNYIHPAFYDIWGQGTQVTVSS	Not met
IL6RPMP100A10 (VHH) VHH: EVQLVESGGGLVQAGGSLRLSCAASGRGFSPYTMGWFRQAPGKERVFVAGISWSTGIAHYTDSVKGRFTISRDNAKNTGSLQMNSLKPEDTAVYYCAVVQTTKGNYDYWGQGTQVTVSS	Not met
IL6RPMP108C10 (VHH) VHH: EVQLVESGGGLVQPGGSLRLSCTASGRTFSDYDMGWFRQAPGKERECVAVIDTNGDNTLTVGSVKGRFAISRDNAKNTVYLQMNSLLPEDTAVYTCAAGAWSSLRSTAANYWGQGTQVTVSS	Met

Now take the following binder into account.
## Input Does OD450 ratio sample/blank meet or surpass 1 for IL6RPMP102G3 (VHH) VHH: EVQLVESGGGLVQAGGSLRLSCAASGSIDRINAMGWYRQAPGKQRDFLAVITDGDKTLYADSVKGRFTISNDNAKNTVYLQMNSLKPEDTAVYYCNAYQAGWGDYWGQGTQVTVSS ?
## Output Met
